test: chemical genetic growth profiling, strain panel (AID 1159580);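 also: tested at 20 µM; growth read once vehicle control cultures reached saturation at 30 °C; 1 = growth at the plate median or of vehicle wells; lower values mean less growth of the strain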; settings: S. cerevisiae deletion strains, growth OD, locus YGR229C, strain SMI1, stronger effect = lower value
Hit rate of the full screen: of about 5,500 compounds, about 2,000 (36%) were called active. Roughly 18% stayed inconclusive and do not appear here. Some of the results follow.
normalized growth by entry:
Lab note: record the figure alone, no unit after it.

Cc1ccc(S(=O)(=O)N[C@@H](CCCCN)C(=O)CCl)cc1 = 0.962
CCOCN(C(=O)CCl)c1c(C)cccc1CC = 1.01

Record summary for COc1cc(OC)c2ccc(=O)oc2c1 : reported normalized growth = 0.993

###

assay: chemical genetic growth profiling, strain panel (AID 1159580);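 also: tested at 20 µM; growth read once vehicle control cultures reached saturation at 30 °C; 1 = growth at the plate median or of vehicle wells; lower values mean less growth of the strain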; details: S. cerevisiae deletion strains, growth OD, locus YMR078C, strain ctf18, stronger effect = lower value
The whole screen tested about 5,500 compounds, of which about 2,000 (36%) were called active. Roughly 18% stayed inconclusive and do not appear here. Some of the results follow.
Result type: normalized growth
Lab note: record the figure alone, no unit after it.

For orientation, consider the following solved cases.
C[C@@H]1O[C@@H](OC[C@H]2OC(Oc3c(-c4ccc(OCCO)c(OCCO)c4)oc4cc(OCCO)cc(O)c4c3=O)[C@H](O)[C@@H](O)[C@@H]2O)[C@H](O)[C@H](O)[C@H]1O (some centres not stated) = 0.988
CC[n+]1c(-c2ccccc2)c2cc(N)ccc2c2ccc(N)cc21 = 0.814
COc1cc(OC)c2c(=O)c(OC)c(-c3ccc(OC)c(OC)c3)oc2c1 = 1.01
NC(=NCCC[C@H](N)C(=O)O)N[N+](=O)[O-] = 0.997
COc1cc(O)c2c(=O)c(O)c(-c3ccc(O)c(O)c3)oc2c1 = 1.02

Record summary for CC(=O)OC1CN2CCC1CC2 (configuration not stated) : reported normalized growth = 0.972

Record summary for COc1cc(OC)c2c(=O)c(O)c(-c3ccc(OC)c(OC)c3)oc2c1 : reported normalized growth = 0.957
